System: OVCAR-5 ovarian
ASSAY REMARKS: NCI tumour cell line growth inhibition, 48 h
OUTCOME MEASURE: GI50

The following compounds have reported results that may help.
COMPOUND	GI50
Nc1ccccc1C#C/C=C\C#CC#C/C=C\C#Cc1ccccc1N	14.9 µM
CC1=C(/C=C/C(=O)CC(=O)/C=C/C2=C(C)CCCC2(C)C)C(C)(C)CCC1	77 µM
N#CC1=C(N)NC(=S)NC1c1ccc(-c2ccc(-c3nc4ccccc4o3)cc2)s1 (stereo not drawn)	16 µM
NCCCCCNc1noc(Cc2c[nH]c3cc(Br)ccc23)n1	5.29 µM
Cc1ccc(S(=O)(=O)OCC#CCOS(=O)(=O)c2ccc(C)cc2)cc1	4.99 µM

For every listed record, write down its GI50.
1. N#Cc1cnc2cc(OC[C@@H](O)CO)c(NC(=O)C3CCCC3)cc2c1Nc1ccc(OCc2cccc(F)c2)c(Cl)c1
2. COc1cc(Cl)cc(-c2nn(-c3cccc(NC(=O)Nc4cccc(C(F)(F)F)c4)c3)cc2-c2ccncc2)c1
3. O=C1CC[C@H](N2Cc3c(OCc4ccc(CN5CCOCC5)cc4)cccc3C2=O)C(=O)N1
4. CC(=O)Oc1ccc2c(c1)[C@@]1(C)CCCC(C)(C)[C@@H]1CC2
5. Cc1ccc(C(=O)c2sc3nc4c(cc3c2N)CCCC4)c(C)c1
6. O=S(=O)(NCCNc1nccc(-c2c(-c3ccc(F)c(O)c3)nc3sccn23)n1)c1ccc(Cl)cc1
7. O=C1Nc2cc(-c3cccc(O)c3)ccc2/C1=C/c1ccc[nH]1

["7.69 µM", "3.06 µM", "> 100 µM", "22.3 µM", "2.49 µM", "7.31 µM", "2.89 µM"]

Dear reader, for each entry below, please note its GI50.
1. CNCC/C=C1\c2cc3c(cc2-c2c1c1cc(OC)c(OC)cc1c(=O)n2C)OCO3
2. O=C(CSCC(=O)N/N=C/c1ccccc1O)N/N=C\c1ccccc1O

4.51 µM
5.11 µM

Would you mind giving GI50 for every compound in the list below?
1. NCCCOc1cc2ccccc2cc1C(=O)Nc1ccc(Cl)cc1OC(=O)c1cc2ccccc2cc1OCCCN
2. CCCCCCCCCC[C@@H](O)[C@@H]1CC[C@@H]([C@@H]2CC[C@@H]([C@@H](O)CCCCCCCCCC[C@H](O)CC3=CC(C)OC3=O)O2)O1 (stereo partly drawn)
3. O=C(Nc1cccc(-n2cc(-c3ccncc3)c(-c3ccc(O)c(Cl)c3)n2)c1)c1ccc2c(c1)OCCO2
4. COCCOCCOCc1n(Cc2ccc3ccccc3c2)c2ccccc2[n+]1Cc1ccc2ccccc2c1

["1 µM", "> 75.4 µM", "> 100 µM", "0.927 µM"]

* * *

Tested on: UACC-62 melanoma
ASSAY REMARKS: NCI tumour cell line growth inhibition, 48 h; in the data active means GI50 below about 0.43 µM; inactive means the rest
Pick from YES = active, NO = inactive when you respond.

The examples below pair each entry with its known result.
INPUT SMILES	CATEGORY LABEL
C[C@]12CC[C@@H]3c4ccc(O)cc4CC[C@H]3[C@@H]1CC[C@@H]2NS(=O)(=O)c1ccc(Br)cc1	NO
Nc1nonc1-c1nc2ccccc2n1Cc1ccc(F)cc1	NO

// outcome(item) with item = "CNC(=O)c1cc(Oc2cccc3nc(NC(=O)Nc4cc(C(F)(F)F)cc(C(F)(F)F)c4)ccc23)ccn1"
NO

Which result was noted for this compound in the test: "O=C1CC[C@H](N2Cc3c(OCc4ccc(CN5CCOCC5)cc4)cccc3C2=O)C(=O)N1"
NO

Assay outcome for "CCOC(=O)C(Cc1c[nH]c2cc(N(CCO)CCO)ccc12)(NC(C)=O)C(=O)OCC" : what was it?
NO

What did the test return for "Cc1cc(C(=O)Nc2n[nH]c3ccccc23)n[nH]1" ?
NO

So what was the verdict on "COCCOCCOCc1n(Cc2ccc3ccccc3c2)c2ccccc2[n+]1Cc1ccc2ccccc2c1" in this test?
YES

Hi, sorry to bother you, what did the test record for "O=C(Nc1cccc(-n2cc(-c3ccncc3)c(-c3ccc(O)c(Cl)c3)n2)c1)c1ccc2c(c1)OCCO2" ?
NO

Record lookup: outcome of this test for "NCCCOc1cc2ccccc2cc1C(=O)Nc1ccc(Cl)cc1OC(=O)c1cc2ccccc2cc1OCCCN" ?
NO
